Tested on: 653999-131-R-J2-PDC complex spheroids, growth % test/control
method_notes: Anticancer human tumor 653999-131-R-J2-PDC patient-derived lung adenocarcinoma cell line growth inhibition [AhR]; active = viability on the fitted dose curve at most 10% of control; inactive = the rest
assay_setup: second compound 0.316 µM; first compound 3.16 µM
Thanks in advance; please answer with one of these: yes (1) = active, no (0) = inactive

Use these answered entries as a reference point.
compound	category
COc1cc(Nc2ncc3c(n2)-c2ccc(Cl)cc2C(c2c(F)cccc2OC)=NC3)ccc1C(=O)O + Cc1cncc(-c2nc(NCCc3c[nH]c4ccccc34)c3ncn(C(C)C)c3n2)c1	no (0)
Nc1ccn(C2OC(CO)C(O)C2(F)F)c(=O)n1 (stereo not drawn) + Cc1ccccc1N=Nc1ccc(NC(=O)c2ccnn2C)c(C)c1	no (0)
COc1cccc2c1C(=O)c1c(O)c3c(c(O)c1C2=O)CC(O)(C(=O)CO)CC3OC1CC(N)C(O)C(C)O1 (stereo not drawn) + Cc1ccccc1N=Nc1ccc(NC(=O)c2ccnn2C)c(C)c1	yes (1)
NS(=O)(=O)OCC1CC(n2ccc3c(NC4CCc5ccccc54)ncnc32)CC1O (stereo not drawn) + Cc1cncc(-c2nc(NCCc3c[nH]c4ccccc34)c3ncn(C(C)C)c3n2)c1	no (0)
COc1ccc([C@@H](O)c2cc(-c3ncnc4cc(N5CCOCC5)ccc34)c(F)cc2Cl)nn1 + CC(CO)NC(=O)c1cc(-c2ccc(Cl)cc2)nn(-c2cnn(C)c2)c1=O	no (0)

**Q:** Hey, what did the test say about CC1COCCN1c1cc(C2(S(C)(=N)=O)CC2)nc(-c2ccnc3[nH]ccc23)n1 (stereo not drawn) + Cc1ccccc1N=Nc1ccc(NC(=O)c2ccnn2C)c(C)c1 ?
**A:** no (0)

**Q:** Identify the outcome logged in this assay for the compound shown: O=C(C=Cc1cccc(S(=O)(=O)Nc2ccccc2)c1)NO + Cc1ccccc1N=Nc1ccc(NC(=O)c2ccnn2C)c(C)c1
**A:** no (0)

**Q:** // outcome(item) with item = COc1cc(C2c3cc4c(cc3C(OC3OC5COC(C)OC5C(O)C3O)C3COC(=O)C23)OCO4)cc(OC)c1O (stereo not drawn) + Cc1ccccc1N=Nc1ccc(NC(=O)c2ccnn2C)c(C)c1
**A:** no (0)

----------
Tested on: 653999-131-R-J2-PDC complex spheroids, growth % test/control
method_notes: Anticancer human tumor 653999-131-R-J2-PDC cell line growth inhibition [AhR];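 note: spheroids exposed to agents for seven days; 100% = DMSO vehicle control viability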
assay_setup: second compound 0.1 µM; first compound 1 µM; active compounds read low
Description: Multicellular complex tumor spheroid response to aryl hydrocarbon receptor antagonists in combination with a variety of drugs and investigational agents in selected tumor cell lines […] Compounds. […] If the clinical Cmax for an agent had not been determined, the highest concentration tested was 10 microM (Table 1). […]
Each item that follows carries a reported viability, T/C.

compound	viability, T/C
COc1cc(Nc2ncc3c(n2)-c2ccc(Cl)cc2C(c2c(F)cccc2OC)=NC3)ccc1C(=O)O + Cc1ccccc1N=Nc1ccc(NC(=O)c2ccnn2C)c(C)c1	58.2%
CC1COCCN1c1cc(C2(S(C)(=N)=O)CC2)nc(-c2ccnc3[nH]ccc23)n1 (centres undefined) + Cc1ccccc1N=Nc1ccc(NC(=O)c2ccnn2C)c(C)c1	83.5%
NS(=O)(=O)OCC1CC(n2ccc3c(NC4CCc5ccccc54)ncnc32)CC1O (centres undefined) + CC(CO)NC(=O)c1cc(-c2ccc(Cl)cc2)nn(-c2cnn(C)c2)c1=O	98.9%
Nc1ccn(C2OC(CO)C(O)C2(F)F)c(=O)n1 (centres undefined) + CC(CO)NC(=O)c1cc(-c2ccc(Cl)cc2)nn(-c2cnn(C)c2)c1=O	48%
COc1ccc([C@@H](O)c2cc(-c3ncnc4cc(N5CCOCC5)ccc34)c(F)cc2Cl)nn1 + Cc1cncc(-c2nc(NCCc3c[nH]c4ccccc34)c3ncn(C(C)C)c3n2)c1	82.4%

**Q:** Could you share which viability, T/C value was measured for O=C(c1cc(Cc2n[nH]c(=O)c3ccccc23)ccc1F)N1CCN(C(=O)C2CC2)CC1 + Cc1cncc(-c2nc(NCCc3c[nH]c4ccccc34)c3ncn(C(C)C)c3n2)c1 ?
**A:** 94%

**Q:** Name the recorded viability, T/C for O=C(c1cc(Cc2n[nH]c(=O)c3ccccc23)ccc1F)N1CCN(C(=O)C2CC2)CC1 + Cc1ccccc1N=Nc1ccc(NC(=O)c2ccnn2C)c(C)c1 .
**A:** 92.7%

**Q:** I am curious: what viability, T/C value has been reported for CC1(C)CCC(CN2CCN(c3ccc(C(=O)NS(=O)(=O)c4ccc(NCC5CCOCC5)c([N+](=O)[O-])c4)c(Oc4cnc5[nH]ccc5c4)c3)CC2)=C(c2ccc(Cl)cc2)C1 + Cc1cncc(-c2nc(NCCc3c[nH]c4ccccc34)c3ncn(C(C)C)c3n2)c1 ?
**A:** 101%

**Q:** // query viability, T/C value for entry O=C(c1cc(Cc2n[nH]c(=O)c3ccccc23)ccc1F)N1CCN(C(=O)C2CC2)CC1 + CC(CO)NC(=O)c1cc(-c2ccc(Cl)cc2)nn(-c2cnn(C)c2)c1=O
**A:** 83.6%

**Q:** Find the recorded viability, T/C belonging to CC1COCCN1c1cc(C2(S(C)(=N)=O)CC2)nc(-c2ccnc3[nH]ccc23)n1 (centres undefined) + CC(CO)NC(=O)c1cc(-c2ccc(Cl)cc2)nn(-c2cnn(C)c2)c1=O and report it.
**A:** 87.3%

**Q:** Quick check: viability, T/C of Nc1ccccc1NC(=O)c1ccc(CNC(=O)OCc2cccnc2)cc1 + CC(CO)NC(=O)c1cc(-c2ccc(Cl)cc2)nn(-c2cnn(C)c2)c1=O ?
**A:** 65.4%

**Q:** Item COc1cc(C2c3cc4c(cc3C(OC3OC5COC(C)OC5C(O)C3O)C3COC(=O)C23)OCO4)cc(OC)c1O (centres undefined) + Cc1cncc(-c2nc(NCCc3c[nH]c4ccccc34)c3ncn(C(C)C)c3n2)c1 has what recorded viability, T/C?
**A:** 51.5%

**Q:** Dear colleague, I am looking for the recorded viability, T/C of the following compound: NS(=O)(=O)OCC1CC(n2ccc3c(NC4CCc5ccccc54)ncnc32)CC1O (centres undefined) + Cc1cncc(-c2nc(NCCc3c[nH]c4ccccc34)c3ncn(C(C)C)c3n2)c1
**A:** 71.4%

**Q:** Give its viability, T/C value. Item: CC1COCCN1c1cc(-c2ccnn2C)c2ccnc(-c3ccn[nH]3)c2n1 (centres undefined) + CC(CO)NC(=O)c1cc(-c2ccc(Cl)cc2)nn(-c2cnn(C)c2)c1=O
**A:** 28.4%
